The reported measurements were obtained from ChEMBL document CHEMBL1201862.

- Test system: Hs-578T
- assayMethodText: NCI tumour cell line growth inhibition, 48 h
Activity calls are given as the source filed them. No stated cut-off is given here; in the data, active = GI50 up to about 1.1 µM and inactive = higher.
In this exercise, the only acceptable responses are yes (active), no (inactive)

Before answering, review these 6 worked examples.
COc1ccc(-c2coc3cc(OC)cc(O)c3c2=O)cc1 [4',7-DIMETHOXY-5-HYDROXYGENISTEIN]
no
COc1cc([N+](=O)[O-])c(S(=O)(=O)[O-])cc1-[n+]1nc(C(=O)Nc2ccccc2)nn1-c1ccc([N+](=O)[O-])c(S(=O)(=O)O)c1
no
Nc1ccccc1SCc1csc(-c2ccc(Cl)cc2)n1
no
CCOC(=O)C1(Cc2c[nH]c3ccccc23)C(O)CCCN1C(C)=O (configuration not stated)
no
O=[N+]([O-])c1c(O)c2nonc2c2nn(-c3ccccc3)nc12
no
C[C@H](CCC(=O)O)[C@H]1CC[C@H]2[C@@H]3CC[C@@H]4C[C@H](O)CC[C@]4(C)[C@H]3C[C@H](O)[C@]12C
no

Assay outcome for CS(=O)(=O)OCC1CCCCCCCCCCC12SCCCS2 (configuration not stated) : what was it?
no

Now consider O=C1C=CC(=O)C(CNc2ccc(C(=O)OC34CC5CC(CC(C5)C3)C4)cc2)=C1 .
no

Now consider Cc1ccc(OCC2=NN3C(=O)/C(=C\c4ccc([N+](=O)[O-])o4)SC3N2)cc1 (configuration not stated) .
no

Now consider CN1C(=O)C2(Cc3cn(C45CC67SSC(CO)(C(=O)N6C4Nc4ccccc45)N(C)C7=O)c4ccccc34)SSC1(CO)C(=O)N2C (configuration not stated) .
yes

Now consider CN(C)c1ccc(/C=C/c2cc(-c3ccccc3)[n+](C)n2-c2ccccc2)cc1 .
yes

Now consider CCCC[C@H]1C(=O)O[C@H](C)[C@H](NC(=O)c2cccc(NC=O)c2O)C(=O)O[C@@H](C)[C@@H]1OC(=O)CC(C)C [ANTIMYCIN A3] .
no

Now consider CC(C)c1nc2c(Cl)c3ncccc3cc2[nH]c1=O .
no

Now consider CCOc1ccc(/N=C/C=C(\Cl)c2ccc3ccccc3c2)cc1 .
no

Now consider CCN(CC)c1ccc(/C=C/C2=NN(c3cccc(S(=O)(=O)O)c3)C3(C2)C(Cl)C(=O)N3c2nc3ccccc3s2)cc1 (configuration not stated) .
no

Now consider Cc1cc(NS(=O)(=O)c2ccc(NC(=O)c3ccc4nc5ccccc5c(Nc5ccc(S(=O)(=O)Nc6cc(C)on6)cc5)c4c3)cc2)no1 .
no

Now consider COc1ccc(N2C(=O)CC(c3c[nH]c4ccccc34)C2=O)cc1 (configuration not stated) .
no

----------
- Test system: SF-295
- assayMethodText: NCI tumour cell line growth inhibition, 48 h
The source made the active and inactive calls. Cut-off read from the data, not from the text of the source: active = GI50 up to about 1.1 µM and inactive = higher.
In this exercise, the only acceptable responses are active, inactive

ClC1=NSSC1(Cl)Cl
inactive
COc1cc(C2c3cc4c(cc3[C@@H](Nc3ccccc3)C3COC[C@H]23)OCO4)cc(OC)c1O (stereo partly drawn)
active

Assay outcome for CC1=Nn2c(nnc2-c2ccc(Cl)cc2)NC(C)(C)C1 : what was it?
inactive

----------
- System: IGROV-1
- assayMethodText: NCI tumour cell line growth inhibition, 48 h
Activity calls are given as the source filed them. Cut-off read from the data, not from the text of the source: active = GI50 up to about 1.1 µM and inactive = higher.
In this exercise, the only acceptable responses are Y (active), N (inactive)

C[N+]1([O-])[C@H]2CC(OC(=O)[C@H](CO)c3ccccc3)C[C@H]1[C@H]1O[C@H]12 (some centres undefined)
N
Cc1cc(C2(O)C=C(C(C)(C)C)C(=O)C(C(C)(C)C)=C2)c(C)cc1C1(O)C=C(C(C)(C)C)C(=O)C(C(C)(C)C)=C1
N
O=C(NCCCNCCCCNCCCNC(=O)c1cc(-c2ccccc2)nc2ccccc12)c1cc(-c2ccccc2)nc2ccccc12
N
OCC1OC2c3ccccc3COC2C1OCc1ccccc1 (centres undefined)
N
O=C1c2ccccc2-c2ccc(NC(=O)C3CCCCC3C(=O)O)cc21 (centres undefined)
N
CC1=NOC(=O)/C1=C/c1cccc2ccccc12
N
CSC[S+]([O-])C[C@H](CO)NC(=O)/C=C/c1c(C)[nH]c(=O)[nH]c1=O (some centres undefined)
Y
O=C1CN(c2cccc(Cl)c2)C(=O)CN1NCNN1CC(=O)N(c2cccc(Cl)c2)CC1=O
N

Now take the following compound into account.
Assay outcome for O=C(/C=C/c1cccc2ccccc12)c1ccccc1 : what was it?
N

----------
Give measured GI50 for each item. Keep answers brief.
- Tested on: M14
- assayMethodText: NCI tumour cell line growth inhibition, 48 h
Calls of active or inactive are those of the source. Cut-off read from the data, not from the text of the source: active = GI50 up to about 1.1 µM and inactive = higher.

Field: example entries. Status: answers known.
N#CCCN(CCC#N)c1ccc(/C=C(/NC(=O)Nc2ccccc2Cl)NC(=O)c2cc([N+](=O)[O-])ccc2Cl)cc1
> 100 µM (inactive)
N#C/C(=C\c1cc(OCc2ccccc2)c(OCc2ccccc2)cn1)C(N)=O
> 100 µM (inactive)
N#CC(c1nc2ccccc2s1)c1nc(Cl)ncc1Br (stereo not given)
44.6 µM (inactive)
CCOC(=O)/C=C/[C@H](O[Si](c1ccccc1)(c1ccccc1)c1ccccc1)C(C)(C)C
73.8 µM (inactive)
c1ccc2c(CCNC3=NCCO3)cccc2c1
> 10 µM (inactive)
O=c1[nH]nc(NCCc2ccccc2)c2nnn(Cc3ccccc3)c12
> 100 µM (inactive)
C/C(=C\C(C[C@](C)(O)C(O)CCC#C[Si](C)(C)C)S(=O)(=O)c1ccccc1)CC/C=C/CO[Si](C)(C)C(C)(C)C (stereo not given in full)
17.9 µM (inactive)
CC12CC(=O)C3C(C(=O)C1)C32C (stereo not given)
> 100 µM (inactive)
O=C1C=CC(=O)C(CNc2ccc(C(=O)OC34CC5CC(CC(C5)C3)C4)cc2)=C1
12.6 µM (inactive)

Shifting focus to the compound that follows.
Look up GI50 with M14 for this compound: CCOC(=O)C1(Cc2c[nH]c3ccccc23)C(O)CCCN1C(C)=O (stereo not given)
> 100 µM (inactive)

----------
- Test system: UACC-257
- assayMethodText: NCI tumour cell line growth inhibition, 48 h
Active and inactive are the calls of the source. No stated cut-off is given here; in the data, active = GI50 up to about 1.1 µM and inactive = higher.
readoutName: GI50

Field: example entries. Status: answers known.
Cn1c(=S)[nH]c(N)c(Cc2ccccc2)c1=O
> 100 µM (inactive)
O=c1[nH]nc(NCCc2ccccc2)c2nnn(Cc3ccccc3)c12
> 100 µM (inactive)
CCCCSc1nsc(N(C(=O)c2ccccc2)C(=O)c2ccccc2)n1
27.3 µM (inactive)
O=C(NCCCC/N=c1/cccccc1NCCCCNC(=O)OCc1ccccc1)OCc1ccccc1
15.2 µM (inactive)
Fc1ccc(NCn2nc(COc3ccccc3Cl)n(/N=C/c3ccc(-c4ccc(Cl)cc4Cl)o3)c2=S)cc1Cl
41.5 µM (inactive)

Can you give me GI50 for all of these, one by one?
1. O=C1OCC/C1=N/O
2. CC(Oc1ccc2c(-c3ccc(Cl)cc3)cc(=O)oc2c1)C(=O)O (configuration not stated)
3. O=C(Nc1ccccc1)N1CCN(C(=O)Nc2ccccc2)C1=S

1. > 100 µM (inactive)
2. > 100 µM (inactive)
3. > 100 µM (inactive)

----------
- Tested on: RPMI-8226
- assayMethodText: NCI tumour cell line growth inhibition, 48 h
Calls of active or inactive are those of the source. Cut-off read from the data, not from the text of the source: active = GI50 up to about 1.1 µM and inactive = higher.
readoutName: GI50

Field: example entries. Status: answers known.
COc1ccc(Cn2nc(OCc3ccccc3)c3cc([N+](=O)[O-])ccc32)cc1
> 100 µM (inactive)
C#CCn1c(=O)c(C)cn(/C(=C/C(=O)OCC)C(=O)OCC)c1=O
3.98 µM (inactive)
N#CCCN(CCC#N)c1ccc(/C=C(/NC(=O)Nc2ccccc2Cl)NC(=O)c2cc([N+](=O)[O-])ccc2Cl)cc1
52.4 µM (inactive)
CCCCNc1nc(SC)nc2[nH]cnc12
> 100 µM (inactive)

Shifting focus to the compound that follows.
Request the reported GI50 associated with Cc1ccc(S(=O)(=O)NC(=O)NC(C(=O)O)C(C)C)cc1 (stereo not given)
> 100 µM (inactive)

----------
- Tested on: HL-60
- assayMethodText: NCI tumour cell line growth inhibition, 48 h
Active and inactive are the calls of the source. Rule as the data show it: active = GI50 up to about 1.1 µM and inactive = higher. Where a SMILES comes first, the peptide text is derived from it. [ ]: non-standard residue; d: D form. Ac5c = NC1(C(=O)O)CCCC1
In this exercise, the only acceptable responses are active, inactive

Cc1cccc2c(N)c3cccc(C(=O)NCCN4CCOCC4)c3nc12
active
COC(=O)C1=NN2c3ccccc3C(=O)OCCC2(C)C1 (configuration not stated)
inactive
O=C(O)C(/C=C/c1ccccc1)c1ccccc1 (configuration not stated)
inactive
NC1(C(=O)NC2(C(=O)O)CCCC2)CCCC1 (H-[Ac5c]-[Ac5c]-OH)
inactive
CN(C)CCNC(=O)c1cc([N+](=O)[O-])cn1C
inactive

Assay outcome for C[s+]1c2ccccc2c2ccccc21 : what was it?
inactive

Now consider Fc1ccc2c(c1)cc1ccc3cccc4ccc2c1c34 .
inactive

Now consider O=C(O)c1cc(/N=N/c2ccc([As](=O)(O)O)cc2)ccc1O .
inactive

Now consider Cc1ccc(OCC2=NN3C(=O)/C(=C\c4ccc([N+](=O)[O-])o4)SC3N2)cc1 (configuration not stated) .
inactive

Now consider CC#CC#C/C(=C/C=CC(=O)OC)SC .
inactive

Now consider CCCCCCNC(=O)c1cc(CCc2cc(O)ccc2O)ccc1O .
active

Now consider CC(O[Si](c1ccccc1)(c1ccccc1)C(C)(C)C)[C@H](NC(=O)OC(C)(C)C)C(=O)O (some centres not stated) .
inactive

Now consider CCc1ccc(/C=C/C(=O)C2CN(CC)CCC2(O)/C=C/c2ccc(CC)cc2)cc1 (configuration not stated) .
inactive

Now consider CC1=C(C#N)C2C(=C(N)Oc3ccccc32)C(N)=N1 (configuration not stated) .
inactive

Now consider O=C(Oc1c(Cl)cc(C2(c3cc(Cl)c(OC(=O)c4ccccc4)c(Cl)c3)CCCCC2)cc1Cl)c1ccccc1 .
inactive

Now consider C/C=C(\N=C=S)C(=O)OC1C(COC(C)=O)OC([C@]2(O)CC(=O)C(N)=C(C(=O)O)C2=O)C(O)C1OC1CC(OC)C(O)([C@@H](C)OC(=O)[C@@H](C)CC)C(C)O1 (some centres not stated) .
inactive

Now consider CC1CC(=O)Nc2ccccc2N1C(=O)C1CC1 (configuration not stated) .
inactive

Now consider O=C(O)CC1NC(/C(=C/c2ccccc2O)NC(=O)c2ccccc2)OC1=O (configuration not stated) .
inactive

Now consider Cc1cc2cc3c(O)nc(O)nc3nc2cc1C .
inactive

Now consider Oc1cc(-c2ccc(F)cc2)nc2ncc(Cl)cc12 .
inactive

Now consider O=C(Cc1nc2ccccc2s1)NC12CC3CC(CC(C3)C1)C2 .
inactive

Now consider COc1ccc(CNc2cnc3ccc(N)cc3n2)cc1 .
inactive
